- Experiment: qHTS of pediatric cancer cell lines to identify multiple opportunities for drug repurposing: Primary screen for Rh18 cells (AID 1347102); also: nearly all actives have a fitted effect of over 65% in size
- Condition Label: Rh18 rhabdomyosarcoma viability, CellTiter-Glo luminescence, 48 h; series mostly up to 46 µM
Inconclusive results are not listed. Activity calls are given as the source filed them. Calls follow the shape of the dose curve; as a rule, active = well fitted cell-killing curve with a large enough effect; inconclusive = small, poorly fitted or top-dose-only effect; inactive = flat fitted curve, though single readings scatter.
Readout: outcome

> print(dat)
                                    compound  reported
 1  CN1CCc2cc(Cl)c(O)cc2[C@H]2c3ccccc3CC[C@@H]21  inactive
 2  N#Cc1nn(-c2c(Cl)cc(C(F)(F)F)cc2Cl)c(N)c1S(=O)C(F)(F)F (stereo not drawn)  inactive
 3      Cc1ccc(N=CN(C)C=Nc2ccc(C)cc2C)c(C)c1  inactive
 4  CCOC(=O)C(c1c(O)c2ccccc2oc1=O)c1c(O)c2ccccc2oc1=O  inactive
 5                     COP(=O)(OC)OC=C(Cl)Cl  inactive
 6                      CCc1ccc(C2CCNCC2)cc1  inactive
 7  C[C@]12C=CC(=O)C=C1CC[C@@H]1[C@@H]2CC[C@@]2(C)[C@H]1CC[C@]2(C)O  inactive
 8                               Sc1ccccc1Cl  inactive
 9  C=CCN1CC[C@]23CCCC[C@H]2[C@H]1Cc1ccc(O)cc13  inactive
10                  c1ccc2nc(N3CCNCC3)ccc2c1  inactive
11  CN1C(=O)[C@@H](NC(=O)c2cc3ccccc3[nH]2)N=C(c2ccccc2)c2ccccc21  inactive
12  CCCCC1C(=O)NC(=O)N(C2CCCCC2)C1=O (stereo not drawn)  inactive
13  Nc1ccccc1C(=O)OCC(O)CO (stereo not drawn)  inactive

# credit: PubChem BioAssay (NCATS)
